- subject_of_test: human cyclin-dependent kinase 2 (Cdk2) (Homo sapiens, UniProt P24941)
- Construct: poly-histidine; made in house; host or cells: E. coli
- experiment_description: Kinetic thiol consumption assay with wild type Cdk2 (C177)
- Type: binding
- experimental_context: model thiol Cdk2[C177A, F80C, K278C]
measurement_label: k(Cdk2)/k(Cdk2_mut) rate enhancement

C=CC(=O)Nc1cccc(C(=O)c2ccccc2)c1 | 0.2745
C=CC(=O)N(Cc1ccco1)Cc1ccco1 | 18.23
C=CC(=O)Nc1ccccc1-c1ccccc1 | 0.1479
C=CC(=O)NC1CCN(Cc2ccccc2)CC1 | 0.5905
C=CC(=O)NC1(c2noc(C)n2)CCCCCC1 | 14.75

[a] C=CC(=O)N(c1cccc2ncccc12)C1CCC1
[b] C=CC(=O)Nc1ccc2c(c1)OC1(CCCC1)O2
Q) For the two items a and b , which reports the higher k(Cdk2)/k(Cdk2_mut) rate enhancement value? Mark your selection by writing its label.
A) a

---

- subject_of_test: human cyclin-dependent kinase 2 (Cdk2) (Homo sapiens, UniProt P24941)
- Construct: poly-histidine; made in house; host or cells: E. coli
- experiment_description: Kinetic thiol consumption assay with wild type Cdk2 (C177)
- Assay type: binding
- experimental_context: Protein: Cdk2; cysteine position WT; in h^-1
measurement_label: Rate constant with Cdk2 WT

C=CC(=O)N1CCOC2(CCCCC2)C1 | 0.02444
C=CC(=O)N1CCN(C(=O)OC(C)(C)C)c2ccccc21 | 0.2006

[A] C=CC(=O)NC(C)c1cc(OC)c(OC)c(OC)c1 (stereo not shown)
[B] C=CC(=O)N1CCC(c2nc3ccccc3[nH]2)CC1
Q) Lowest Rate constant with Cdk2 WT? choose A or B Mark your selection by writing its label.
A) A

[I] C=CC(=O)N1CC2CCN(Cc3ccccc3)C2C1 (stereo not shown)
[II] C=CC(=O)N(c1ccc2c(c1)OCCO2)C1CC1
[III] C=CC(=O)Nc1nc2c(s1)CCCCCC2
[IV] C=CC(=O)Nc1ccc(C(=O)OC)cc1
[V] C=CC(=O)NC1(C2CC2)CC1
Q) Sort (5 compounds) by Rate constant with Cdk2 WT: min first. Respond with an ordered listing of the labels, as requested.
A) I, V, II, IV, III
(I: 0.003469, V: 0.0056, II: 0.01101, IV: 0.1733, III: 0.2972)

[P] C=CC(=O)NC1CC2CC1C1CCCC21 (stereo not shown)
[Q] C=CC(=O)Nc1ccc2nc(C)[nH]c2c1
Q) Lowest Rate constant with Cdk2 WT? choose P or Q Mark your selection by writing its label.
A) P

---

- subject_of_test: Cdk2(N272C) (C177A) (Homo sapiens, UniProt P24941, C177A/N272C)
- Construct: poly-histidine; made in house; host or cells: E. coli
- experiment_description: Kinetic thiol consumption assay with Cdk2 mutant N272C
- Assay type: binding
- Parameters: key: rate constant with Cdk2 ÷ rate constant with model thiol (fold)
- experimental_context: Cdk2 N272, additional mutation C177A
measurement_label: Rate enhancement, Cdk2 N272

C=CC(=O)NC(Cc1ccccc1)C(O)CF (stereo not drawn) | 0.09396

[I] C=CC(=O)N(Cc1ccco1)Cc1ccco1
[II] C=CC(=O)N(CCCN1CCOCC1)Cc1ccncc1
Q) For the two items I and II , which reports the higher Rate enhancement, Cdk2 N272 value? Mark your selection by writing its label.
A) I

---

- subject_of_test: human cyclin-dependent kinase 2 (Cdk2) (Homo sapiens, UniProt P24941)
- Construct: poly-histidine; made in house; host or cells: E. coli
- experiment_description: Kinetic thiol consumption assay with wild type Cdk2 (C177)
- Format: binding
- experimental_context: model thiol glutathione
measurement_label: k(Cdk2)/k(GSH) rate enhancement

The examples below pair each entry with its known result.
C=CC(=O)N1CCC(c2nc3ccccc3[nH]2)CC1 [EL-1152] | 1.009
C=CC(=O)Nc1cccc2ncccc12 [CA-012] | 1.877
C=CC(=O)Nc1ccc(C(=O)OC)cc1 [CA-028] | 2.895
C=CC(=O)NC1CC2CC1C1CCCC21 (stereo not shown) [CA-159] | 0.5547
C=CC(=O)Nc1ccc(C(=O)NC2CCCC2)cc1 [EL-1114] | 2.652
C=CC(=O)NC(C)c1cccc(N2CCOCC2)c1 (stereo not shown) [EL-1153] | 0.3619
C=CC(=O)N1CCC2(CCCN(Cc3ccccc3)C2)C1 (stereo not shown) [CA-141] | 0.5009
C=CC(=O)N1CCCC1CC1CC2CCC1C2 (stereo not shown) [CA-087] | 0.9957
C=CC(=O)Nc1cccc(Nc2ncnc3cc(OC)c(OC)cc23)c1 [GC248] | 0.6783
C=CC(=O)N1CCN(c2ccccc2[N+](=O)[O-])CC1 [EL-1134] | 1.597

[P] C=CC(=O)NC1CCN(Cc2ccccc2)CC1 [BN-78]
[Q] C=CC(=O)N1CC(Cc2ccccc2)C1 [CA-072]
[R] C=CC(=O)Nc1nc2c(s1)CCCCCC2 [CA-170]
Q) Rank by k(Cdk2)/k(GSH) rate enhancement (largest to smallest). Respond with an ordered listing of the labels, as requested.
A) R, Q, P
(R: 4.273, Q: 1.95, P: 0.2873)

[P] C=CC(=O)NC1C[C@@H](C(=C)C)CC=C1C (stereo partly shown) [EL-1074]
[Q] C=CC(=O)N(CCCN1CCOCC1)Cc1ccncc1 [CA-192]
[R] C=CC(=O)N1CCCC1c1ccc(OC)cc1 (stereo not shown) [EL-1062]
Q) Sort (3 molecules) by k(Cdk2)/k(GSH) rate enhancement: min first. Respond with an ordered listing of the labels, as requested.
A) P, Q, R

---

- subject_of_test: Cdk2[C177A, F80C, K278C] (Homo sapiens, UniProt P24941, C177A/F80C/K278C)
- Construct: poly-histidine; made in house; host or cells: E. coli
- experiment_description: Kinetic thiol consumption assay with mutant Cdk2 as model thiol
- Assay type: binding
- Set-up: unit not given here
- experimental_context: 500 μM ligand, 5 μM thiol, phosphate buffer pH 8
measurement_label: Rate constant with Cdk2[C177A, F80C, K278C] (k(Cdk2_mut))

The examples below pair each entry with its known result.
C=CC(=O)NCCc1c(-c2ccccn2)[nH]c2ccccc12 | 0.00284
C=CC(=O)N1CCc2cc(-c3cccc(F)c3)ccc21 | 0.1351
C=CC(=O)Nc1ccc(C(=O)OC)cc1 | 0.3138
C=CC(=O)N1CCN(c2ccccc2[N+](=O)[O-])CC1 | 0.02097
C=CC(=O)N1CCCC1c1ccc(OC)cc1 (stereo not shown) | 0.00663
C=CC(=O)N1CCn2cccc2C1c1ccccc1 (stereo not shown) | 0.01772
C=CC(=O)NCC1(NC(=O)OC(C)(C)C)CCCCC1 | 0.00802
C=CC(=O)N1CCN(Cc2ccc(Cl)cc2)CC1 | 0.00864
C=CC(=O)N1CCCc2sccc2C1 | 0.00997
C=CC(=O)N1CC(n2cccn2)C1 | 0.00504

[I] C=CC(=O)N(C1CC1)C1CCCCC1C1CCCCC1 (stereo not shown)
[II] C=CC(=O)Nc1ccc2c(c1)OC1(CCCC1)O2
[III] C=CC(=O)N1CCC2(CC1)CC2C(=O)OC (stereo not shown)
Q) Rank by Rate constant with Cdk2[C177A, F80C, K278C] (k(Cdk2_mut)) (largest to smallest). Respond with an ordered listing of the labels, as requested.
A) II, I, III

[A] C=CC(=O)N1CCCCCC1c1cccs1 (stereo not shown)
[B] C=CC(=O)NCc1ccc(-c2ccccc2)cc1
Q) For the two items A and B , which reports the higher Rate constant with Cdk2[C177A, F80C, K278C] (k(Cdk2_mut)) value? Mark your selection by writing its label.
A) A
(A: 0.00461, B: 0.00126)

[A] C=CC(=O)N1CCN(c2ccccc2C(N)=O)CC1
[B] C=CC(=O)N1CCCN2C(=O)CCC12c1ccc(OC)cc1 (stereo not shown)
Q) For the two items A and B , which reports the higher Rate constant with Cdk2[C177A, F80C, K278C] (k(Cdk2_mut)) value? Mark your selection by writing its label.
A) A
(A: 0.00382, B: 0.00175)

---

- subject_of_test: Cdk2(N272C) (C177A) (Homo sapiens, UniProt P24941, C177A/N272C)
- Construct: poly-histidine; made in house; host or cells: E. coli
- experiment_description: Kinetic thiol consumption assay with Cdk2 mutant N272C
- Assay type: binding
- Design: key: rate constant with Cdk2 ÷ rate constant with model thiol (fold)
- experimental_context: Cdk2 N272, additional mutation C177A
measurement_label: Rate enhancement, Cdk2 N272

The examples below pair each entry with its known result.
C=CC(=O)NC1(C2CC2)CC1 | 0.1665
CC1CN(C(=O)CCl)CC(C)O1 (stereo not shown) | 0.1055
C=CC(=O)NCC1CCCN1S(=O)(=O)c1ccc(C)cc1 (stereo not shown) | 61.33
C=CC(=O)N1CCN(C(=O)OC(C)(C)C)c2ccccc21 | 0.04255

[P] C=CC(=O)Nc1cccc(C(F)(F)F)c1 [EL-1007]
[Q] C=CC(=O)NCC1CCCN1S(=O)(=O)c1ccc(C(=O)O)cc1 (stereo not shown)
Q) For the two items P and Q , which reports the higher Rate enhancement, Cdk2 N272 value? Mark your selection by writing its label.
A) Q

[A] C=CC(=O)N1CCCCCC1c1ccc(N(C)C)cc1 (stereo not shown)
[B] C=CC(=O)N1CC2CCCCCCC21 (stereo not shown)
[C] O=S1(=O)C=CC(Br)C1 (stereo not shown)
Q) Sort (3 compounds) by Rate enhancement, Cdk2 N272: min first. Respond with an ordered listing of the labels, as requested.
A) A, C, B
(A: 0.1121, C: 0.198, B: 6.698)

[P] C=CC(=O)Nc1ccc(-c2ncccn2)cc1
[Q] O=C(c1ccccc1)[C@@H]1O[C@H]1c1ccccc1
Q) Lowest Rate enhancement, Cdk2 N272? choose P or Q Mark your selection by writing its label.
A) P

[P] C=CC(=O)NCc1ccc(-c2csnn2)cc1
[Q] C=CC(=O)N1CCCC(C(=O)OCC)C1 (stereo not shown)
Q) For the two items P and Q , which reports the higher Rate enhancement, Cdk2 N272 value? Mark your selection by writing its label.
A) P
(P: 1.553, Q: 0.5301)

[P] C=CC(=O)N(C)C1CC(OCC)C12CCC2 (stereo not shown)
[Q] C=CC(=O)N1CC2CC2C1 (stereo not shown)
Q) Lowest Rate enhancement, Cdk2 N272? choose P or Q Mark your selection by writing its label.
A) P

[A] C=CC(=O)NCc1ccc(C(=O)OC)cc1
[B] C=CC(=O)Nc1ccc(C23CC4CC(CC(O)(C4)C2)C3)cc1
Q) For the two items A and B , which reports the higher Rate enhancement, Cdk2 N272 value? Mark your selection by writing its label.
A) A

[1] C=CC(=O)Nc1ccc2nc(C)[nH]c2c1
[2] C=CC(=O)NC(C)c1cccc(N2CCOCC2)c1 (stereo not shown)
Q) Lowest Rate enhancement, Cdk2 N272? choose 1 or 2 Mark your selection by writing its label.
A) 1
